- protocol-summary: Cytotoxicity against human BEAS-2B cells assessed as reduction in cell viability measured after 48 hrs by MTT assay
- Assay type: toxicity, cell-based

{"input-smiles": "CCN(CC)CCNC(=O)c1c(C)[nH]c(/C=C2\\C(=O)Nc3ccc(F)cc32)c1C", "result-qualifier": "=", "IC50 at 48 h [µM]": 6.09}
{"input-smiles": "O=C1CS/C(=N\\c2cc(-c3cn(Cc4ccccc4)c4ccccc34)nn2-c2cccc(Cl)c2)N1", "result-qualifier": ">", "IC50 at 48 h [µM]": 50}
{"input-smiles": "CCn1cc(-c2cc(/N=C3/NC(=O)CS3)n(-c3ccc(C#N)cc3)n2)c2ccccc21", "result-qualifier": ">", "IC50 at 48 h [µM]": 50}
{"input-smiles": "CCc1ccccc1-n1nc(-c2c[nH]c3ccccc23)cc1/N=C1/NC(=O)CS1", "result-qualifier": "=", "IC50 at 48 h [µM]": 14.8}
{"input-smiles": "O=C1CS/C(=N\\c2cc(-c3c[nH]c4ccccc34)nn2-c2ccccc2)N1", "result-qualifier": ">", "IC50 at 48 h [µM]": 50}
{"input-smiles": "CCc1ccccc1-n1nc(-c2c[nH]c3ccc(OC)cc23)cc1/N=C1/NC(=O)CS1", "result-qualifier": "=", "IC50 at 48 h [µM]": 32}
{"input-smiles": "O=C1CS/C(=N\\c2cc(-c3c[nH]c4ccccc34)nn2-c2cccc(Cl)c2)N1", "result-qualifier": "=", "IC50 at 48 h [µM]": 15.9}
{"input-smiles": "CCn1cc(-c2cc(/N=C3/NC(=O)CS3)n(-c3ccc(Cl)cc3)n2)c2cc(OC)ccc21", "result-qualifier": ">", "IC50 at 48 h [µM]": 50}
{"input-smiles": "CCc1ccccc1-n1nc(-c2cn(Cc3ccccc3)c3ccccc23)cc1/N=C1/NC(=O)CS1", "result-qualifier": "=", "IC50 at 48 h [µM]": 27.4}
{"input-smiles": "CCn1cc(-c2cc(/N=C3/NC(=O)CS3)n(-c3ccc(Cl)cc3)n2)c2ccccc21", "result-qualifier": ">", "IC50 at 48 h [µM]": 50}
{"input-smiles": "Cn1cc(-c2cc(/N=C3/NC(=O)CS3)n(-c3ccc(Cl)cc3)n2)c2cc(Br)ccc21", "result-qualifier": ">", "IC50 at 48 h [µM]": 50}
{"input-smiles": "CCc1ccccc1-n1nc(-c2cn(C)c3ccc(OC)cc23)cc1/N=C1/NC(=O)CS1", "result-qualifier": ">", "IC50 at 48 h [µM]": 50}
{"input-smiles": "COc1ccc2[nH]cc(-c3cc(/N=C4/NC(=O)CS4)n(-c4cccc(Cl)c4)n3)c2c1", "result-qualifier": "=", "IC50 at 48 h [µM]": 21.7}

====

- System: HeLa
- protocol-summary: Cytotoxicity against human HeLa cells assessed as reduction in cell viability
- Assay type: functional, cell-based
pIC50: −log10 of the molar value.

{"input-smiles": "COc1cc(NC(=O)/C=C/c2cc(-c3cc(OC)c(OC)c(OC)c3)n[nH]2)cc(OC)c1OC", "pIC50": 6.40}

====

- tgt: Tubulin
- protocol-summary: Inhibition of tubulin polymerization (unknown origin)
- Format: cell-based, Homo sapiens
recorded-endpoint: IC50 (nM)

{"input-smiles": "CCOc1ccc(-c2n[nH]cc2-c2cc(OC)c(OC)c(OC)c2)cc1", "measurement": 350}

====

- System: PC-3
- protocol-summary: Cytotoxicity against multidrug resistance human PC-3 cells assessed as cell growth inhibition
- Type: functional, cell-based

{"input-smiles": "O=C(Nc1ccncc1)C(=O)c1cn(Cc2ccc(Cl)cc2)c2ccccc12", "tgt": "PC-3", "IC50": "64 nM"}
